- Tested on: 616215-338-R-J1-PDC complex spheroid viability
- protocol-text: Anticancer human tumor 616215-338-R-J1-PDC patient-derived colon adenocarcinoma cell line growth inhibition [RAS]
- condition-notes: second compound 0.1 µM; first compound 0.00316 µM; stronger effect = lower value
metric: viability, T/C

>>> observed_measurement("C=CC(=O)Nc1cc(Nc2nccc(-c3cn(C)c4ccccc34)n2)c(OC)cc1N(C)CCN(C)C + C#Cc1c(F)ccc2cc(O)cc(-c3ncc4c(N5CC6CCC(C5)N6)nc(OCC56CCCN5CC(F)C6)nc4c3F)c12")
"106%"
>>> observed_measurement("O=C(c1ccc(F)c(F)c1Nc1ccc(I)cc1F)N1CC(O)([C@@H]2CCCCN2)C1 + C#Cc1c(F)ccc2cc(O)cc(-c3ncc4c(N5CC6CCC(C5)N6)nc(OCC56CCCN5CC(F)C6)nc4c3F)c12")
"114%"
>>> observed_measurement("Nc1ccn(C2OC(CO)C(O)C2(F)F)c(=O)n1 (stereo not given) + C#Cc1c(F)ccc2cc(O)cc(-c3ncc4c(N5CC6CCC(C5)N6)nc(OCC56CCCN5CC(F)C6)nc4c3F)c12")
"117%"
>>> observed_measurement("CC(C)n1nc(-c2ccc3oc(N)nc3c2)c2c(N)ncnc21 + C#Cc1c(F)ccc2cc(O)cc(-c3ncc4c(N5CC6CCC(C5)N6)nc(OCC56CCCN5CC(F)C6)nc4c3F)c12")
"113%"
>>> observed_measurement("O=C(c1ccc(F)c(F)c1Nc1ccc(I)cc1F)N1CC(O)([C@@H]2CCCCN2)C1 + C=CC(=O)N1CCN(c2nc(OCC3CCCN3C)nc3c(F)c(-c4nc(N)cc(C)c4C(F)(F)F)c(Cl)cc23)C(C)C1")
"106%"

====

- Tested on: 616215-338-R-J1-PDC complex spheroid viability
- protocol-text: Anticancer human tumor 616215-338-R-J1-PDC cell line growth inhibition [RAS];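 note: spheroids exposed to agents for seven days before viability readout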
- condition-notes: curve of first compound; second compound 1 µM
- Excerpt: RAS pathway inhibitors in Combinations in Complex Spheroids A high-throughput screen of multi-cell type tumor spheroids was designed to identify active combinations of RAS pathway inhibitors and targeted small molecules. Complex spheroids include a stromal component modeled by human endothelial cells (HUVEC) and fibroblasts modeled by human mesenchymal stem cells (MSCs). […] Compounds. […] If the clinical Cmax for an agent had not been determined, the highest concentration tested was 10 microM. […]
Each item that follows carries a reported IC50.
metric: IC50 (µM)

>>> observed_measurement("CC(C)NCC(C(=O)N1CCN(c2ncnc3c2C(C)CC3O)CC1)c1ccc(Cl)cc1 (stereo not drawn) + C#Cc1c(F)ccc2cc(O)cc(-c3ncc4c(N5CC6CCC(C5)N6)nc(OCC56CCCN5CC(F)C6)nc4c3F)c12")
7.71
>>> observed_measurement("O=C(c1ccc(F)c(F)c1Nc1ccc(I)cc1F)N1CC(O)([C@@H]2CCCCN2)C1 + C#Cc1c(F)ccc2cc(O)cc(-c3ncc4c(N5CC6CCC(C5)N6)nc(OCC56CCCN5CC(F)C6)nc4c3F)c12")
0.0305

====

- Test system: 616215-338-R-J1-PDC complex spheroid viability
- protocol-text: Anticancer human tumor 616215-338-R-J1-PDC cell line growth inhibition [RAS];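 note: spheroids exposed to agents for seven days before viability readout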
- condition-notes: curve of first compound; second compound 0.1 µM
pIC50: −log10 of the molar value.
Catalogue of compounds with associated pIC50
metric: pIC50

>>> observed_measurement("CC1(O)CCCC1n1c(=O)c(C(F)F)cc2cnc(NC3CCN(S(C)(=O)=O)CC3)nc21 (centres undefined) + C=CC(=O)N1CCN(c2nc(OCC3CCCN3C)nc3c(F)c(-c4nc(N)cc(C)c4C(F)(F)F)c(Cl)cc23)C(C)C1")
5.95
>>> observed_measurement("C[C@@H](NC(=O)c1ncnc(N)c1Cl)c1ncc(C(=O)Nc2cc(C(F)(F)F)c(Cl)cn2)s1 + C=CC(=O)N1CCN(c2nc(OCC3CCCN3C)nc3c(F)c(-c4nc(N)cc(C)c4C(F)(F)F)c(Cl)cc23)C(C)C1")
5.01

====

Listed compounds paired with reported viability, T/C
- Test system: 616215-338-R-J1-PDC complex spheroid viability
- protocol-text: Anticancer human tumor 616215-338-R-J1-PDC cell line growth inhibition [RAS];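 note: spheroids exposed to agents for seven days before viability readout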;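 for viability, T/C: 100% = DMSO vehicle control viability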
- condition-notes: second compound 0.000949 µM; first compound 0.00316 µM; stronger effect = lower value
metric: viability, T/C

>>> observed_measurement("O=C(c1ccc(F)c(F)c1Nc1ccc(I)cc1F)N1CC(O)([C@@H]2CCCCN2)C1 + CCn1c(-c2cc(N3CCN(C)CC3)cnc2C(C)OC)c2c3cc(ccc31)-c1csc(n1)CC(NC(=O)C1CC1C)C(=O)N1CCCC(N1)C(=O)OCC(C)(C)C2")
"115%"
>>> observed_measurement("C=CC(=O)Nc1cc(Nc2nccc(-c3cn(C)c4ccccc34)n2)c(OC)cc1N(C)CCN(C)C + CCn1c(-c2cccnc2C(C)OC)c2c3cc(ccc31)N1CCOC(CC(NC(=O)C(C(C)C)N(C)C(=O)C3(F)CCN(C(=O)C#CC(C)(C)N(C)C)CC3)C(=O)N3CCCC(N3)C(=O)OCC(C)(C)C2)C1")
"98.4%"
>>> observed_measurement("Nc1ccn(C2OC(CO)C(O)C2(F)F)c(=O)n1 (stereo not drawn) + CCn1c(-c2cccnc2C(C)OC)c2c3cc(ccc31)N1CCOC(CC(NC(=O)C(C(C)C)N(C)C(=O)C3(F)CCN(C(=O)C#CC(C)(C)N(C)C)CC3)C(=O)N3CCCC(N3)C(=O)OCC(C)(C)C2)C1")
"105%"
>>> observed_measurement("C=CC(=O)N1CCN(c2nc(OCC3CCCN3C)nc3c(F)c(-c4nc(N)cc(C)c4C(F)(F)F)c(Cl)cc23)C(C)C1 (stereo not drawn) + CCn1c(-c2cccnc2C(C)OC)c2c3cc(ccc31)N1CCOC(CC(NC(=O)C(C(C)C)N(C)C(=O)C3(F)CCN(C(=O)C#CC(C)(C)N(C)C)CC3)C(=O)N3CCCC(N3)C(=O)OCC(C)(C)C2)C1")
"106%"
>>> observed_measurement("CCN1CCN(Cc2ccc(Nc3ncc(F)c(-c4cc(F)c5nc(C)n(C(C)C)c5c4)n3)nc2)CC1 + CCn1c(-c2cc(N3CCN(C)CC3)cnc2C(C)OC)c2c3cc(ccc31)-c1csc(n1)CC(NC(=O)C1CC1C)C(=O)N1CCCC(N1)C(=O)OCC(C)(C)C2")
"102%"
>>> observed_measurement("CC(C)n1nc(-c2ccc3oc(N)nc3c2)c2c(N)ncnc21 + CCn1c(-c2cc(N3CCN(C)CC3)cnc2C(C)OC)c2c3cc(ccc31)-c1csc(n1)CC(NC(=O)C1CC1C)C(=O)N1CCCC(N1)C(=O)OCC(C)(C)C2")
"110%"
>>> observed_measurement("CC(C)n1nc(-c2ccc3oc(N)nc3c2)c2c(N)ncnc21 + CCn1c(-c2cccnc2C(C)OC)c2c3cc(ccc31)N1CCOC(CC(NC(=O)C(C(C)C)N(C)C(=O)C3(F)CCN(C(=O)C#CC(C)(C)N(C)C)CC3)C(=O)N3CCCC(N3)C(=O)OCC(C)(C)C2)C1")
"108%"
>>> observed_measurement("C=CC(=O)N1CCN(c2nc(OCC3CCCN3C)nc3c(F)c(-c4nc(N)cc(C)c4C(F)(F)F)c(Cl)cc23)C(C)C1 (stereo not drawn) + CCn1c(-c2cc(N3CCN(C)CC3)cnc2C(C)OC)c2c3cc(ccc31)-c1csc(n1)CC(NC(=O)C1CC1C)C(=O)N1CCCC(N1)C(=O)OCC(C)(C)C2")
"117%"

====

In this section we review reported viability, T/C values for a set of compounds.
- Test system: 616215-338-R-J1-PDC complex spheroid viability
- protocol-text: Anticancer human tumor 616215-338-R-J1-PDC cell line growth inhibition [RAS];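 note: spheroids exposed to agents for seven days before viability readout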;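 for viability, T/C: 100% = DMSO vehicle control viability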
- condition-notes: compound 0.316 µM; stronger effect = lower value
- Source text: RAS pathway inhibitors in Combinations in Complex Spheroids A high-throughput screen of multi-cell type tumor spheroids was designed to identify active combinations of RAS pathway inhibitors and targeted small molecules. Complex spheroids include a stromal component modeled by human endothelial cells (HUVEC) and fibroblasts modeled by human mesenchymal stem cells (MSCs). […] Compounds. […] If the clinical Cmax for an agent had not been determined, the highest concentration tested was 10 microM. […]
metric: viability, T/C

>>> observed_measurement("CC1(O)CCCC1n1c(=O)c(C(F)F)cc2cnc(NC3CCN(S(C)(=O)=O)CC3)nc21 (stereo not drawn)")
"59.3% [middle of 4 runs]"
>>> observed_measurement("C=CC(=O)N1CCN(c2nc(OCC3CCCN3C)nc3c(F)c(-c4nc(N)cc(C)c4C(F)(F)F)c(Cl)cc23)C(C)C1 (stereo not drawn)")
"104% [middle of 12 runs]"
>>> observed_measurement("NC1c2ccccc2OC12CCN(c1cnc3c(N4CCCc5ncccc54)n[nH]c3n1)CC2 (stereo not drawn)")
"92.2% [middle of 4 runs]"

====

- Tested on: 616215-338-R-J1-PDC complex spheroid viability
- protocol-text: Anticancer human tumor 616215-338-R-J1-PDC cell line growth inhibition [RAS];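 note: spheroids exposed to agents for seven days before viability readout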;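 for viability, T/C: 100% = DMSO vehicle control viability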
- condition-notes: second compound 0.01 µM; first compound 0.316 µM; stronger effect = lower value
metric: viability, T/C (%)

>>> observed_measurement("O=C(c1ccc(F)c(F)c1Nc1ccc(I)cc1F)N1CC(O)([C@@H]2CCCCN2)C1 + C=CC(=O)N1CCN(c2nc(OCC3CCCN3C)nc3c(F)c(-c4nc(N)cc(C)c4C(F)(F)F)c(Cl)cc23)C(C)C1")
13.1
>>> observed_measurement("CCN1CCN(Cc2ccc(Nc3ncc(F)c(-c4cc(F)c5nc(C)n(C(C)C)c5c4)n3)nc2)CC1 + C=CC(=O)N1CCN(c2nc(OCC3CCCN3C)nc3c(F)c(-c4nc(N)cc(C)c4C(F)(F)F)c(Cl)cc23)C(C)C1")
145
>>> observed_measurement("CC(Nc1ccc2c(c1)OCCn1cc(N3C(=O)OCC3C(F)F)nc1-2)C(N)=O (centres undefined) + C=CC(=O)N1CCN(c2nc(OCC3CCCN3C)nc3c(F)c(-c4nc(N)cc(C)c4C(F)(F)F)c(Cl)cc23)C(C)C1")
110
>>> observed_measurement("CCC(CC)c1cc(NC2CCC(N)C2)n2nccc2n1 (centres undefined) + C=CC(=O)N1CCN(c2nc(OCC3CCCN3C)nc3c(F)c(-c4nc(N)cc(C)c4C(F)(F)F)c(Cl)cc23)C(C)C1")
96.6
